# pKd listing for each entry below
# Target or test system: GDP-bound KRAS wild-type protein (Homo sapiens, UniProt P01116)
# Sequence (P01116 whole entry): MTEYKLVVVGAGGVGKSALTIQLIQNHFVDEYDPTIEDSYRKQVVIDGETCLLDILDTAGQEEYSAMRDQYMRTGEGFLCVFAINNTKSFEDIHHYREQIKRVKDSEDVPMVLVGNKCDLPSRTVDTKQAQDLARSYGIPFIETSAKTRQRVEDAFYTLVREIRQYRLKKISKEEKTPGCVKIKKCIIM
# Test method notes: Binding to KRAS by surface plasmon resonance (SPR), Single Cycle Kinetics
# Conditions: SPR, Single Cycle Kinetics, 1:1 binding model; GDP-bound KRAS wild-type protein; read-out: KRAS KD
Please treat pKd as minus the base-10 logarithm of the molar concentration.

Compound	pKd
C=CC[C@H]1C(=O)N[C@@H]([C@@H](C)CC)C(=O)N(C)CC(=O)N(C)[C@H]2C/C=C\CCN(C2=O)[C@@H](CC2CCC(F)(F)CC2)C(=O)N(C)CC(=O)N[C@@H](CCc2cc(F)c(C(F)(F)F)c(F)c2)C(=O)N2C[C@H](OCC)C[C@H]2C(=O)NC2(CCC2)C(=O)N(C)[C@@H](C2CCCC2)C(=O)N(C)[C@H](C(=O)N(C)C)CC(=O)N1C [PP1454]	10.02
CCO[C@@H]1C[C@H]2C(=O)NC3(CCC3)C(=O)N(C)[C@@H](C3CCCC3)C(=O)N(C)[C@H](C(=O)N(C)C)CC(=O)N(C)[C@@H](CC3CC3)C(=O)N[C@@H]([C@@H](C)CC)C(=O)N(C)CC(=O)N(C)[C@H]3C/C=C\CCN(C3=O)[C@@H](Cc3ccc(F)cc3C)C(=O)N(C)CC(=O)N[C@@H](CCc3ccc(Cl)c(Cl)c3)C(=O)N2C1 [PP1476]	9.00

Then there is this compound:
Task: Reported pKd, compound CC[C@H](C)[C@@H]1NC(=O)[C@H](CC)N(C)C(=O)C[C@@H](C(=O)N(C)C)N(C)C(=O)[C@H](C2CCCC2)N(C)C(=O)C2(CCCC2)NC(=O)[C@@H]2CCCN2C(=O)[C@H](CCc2cc(F)c(C(F)(F)F)c(F)c2)NC(=O)CN(C)C(=O)[C@H](Cc2ccc(C(F)(F)F)cc2)N2CC(C)[C@@H](C)C[C@@H](C2=O)N(C)C(=O)CN(C)C1=O (stereo partly drawn) [PP1349] : ____
Result: 10.05
